// cross-study collection: pIC50 for UniProtKB P18433
Sequence (P18433 whole entry): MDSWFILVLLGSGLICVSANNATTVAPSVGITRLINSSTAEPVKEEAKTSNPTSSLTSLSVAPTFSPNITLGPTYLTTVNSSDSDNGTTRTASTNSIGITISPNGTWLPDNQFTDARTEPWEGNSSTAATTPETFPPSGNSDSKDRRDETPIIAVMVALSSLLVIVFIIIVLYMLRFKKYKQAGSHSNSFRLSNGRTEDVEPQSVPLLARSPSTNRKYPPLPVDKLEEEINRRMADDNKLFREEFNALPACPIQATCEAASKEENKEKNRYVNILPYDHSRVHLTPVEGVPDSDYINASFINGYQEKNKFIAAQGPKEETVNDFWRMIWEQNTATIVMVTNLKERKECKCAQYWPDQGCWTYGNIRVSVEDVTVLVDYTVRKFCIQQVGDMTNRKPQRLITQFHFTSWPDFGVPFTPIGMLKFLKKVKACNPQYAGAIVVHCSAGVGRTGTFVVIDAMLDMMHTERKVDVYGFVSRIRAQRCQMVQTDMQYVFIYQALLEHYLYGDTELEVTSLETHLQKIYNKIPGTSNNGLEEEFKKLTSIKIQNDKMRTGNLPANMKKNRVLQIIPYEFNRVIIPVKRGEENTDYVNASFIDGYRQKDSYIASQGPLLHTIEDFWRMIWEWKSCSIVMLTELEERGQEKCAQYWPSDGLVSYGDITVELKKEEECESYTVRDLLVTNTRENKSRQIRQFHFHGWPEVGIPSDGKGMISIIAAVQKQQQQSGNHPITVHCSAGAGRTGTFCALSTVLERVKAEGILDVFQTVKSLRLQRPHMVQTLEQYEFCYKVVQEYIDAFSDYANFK
pIC50: −log10 of the molar value.

Use the examples below as a reference point.
>>> df
                                   molecule  endpoint_name  result
0  Cn1c(-c2cccc(NC(=O)C(=O)Nc3ccc(-c4ccsc4)cc3)c2)c(I)c2cc(C(=O)O)c(O)cc21          pIC50  < 4.00
1  Cn1c(-c2ccccc2)c(-c2cn(CCC(=O)Nc3ccc(-c4ccccc4)cc3)nn2)c2cc(C(=O)O)c(O)cc21          pIC50  < 4.30
2  O=C(O)c1cc2c(C#Cc3cc(F)cc(F)c3)c(-c3ccccc3)oc2cc1O          pIC50  < 5.00
3  O=C(Nc1ccc(OCc2ccccc2)c(Cl)c1)C(c1ccccc1)S(=O)(=O)O (stereo not given)          pIC50  < 3.70

Provide value of pIC50 for this record tested with UniProtKB P18433: `O=C(O)COc1c(Br)cc(-c2c3ccccc3c(Br)c3sc4ccccc4c23)cc1Br`
4.77
